Target: Beta-secretase 1 (Homo sapiens)
Assay: Inhibitory activity against recombinant human Beta-secretase 1
experimentalReadout: pKi
Please express pKi as -log10 of the molar concentration.

Task item: Would you kindly share the measured pKi for "O=C(O[C@H]1Cc2c(O)cc(O)cc2O[C@H]1c1ccc(O)c(O)c1)c1cc(O)c(O)c(O)c1" ?
Reply: 5.28

###

# collection of IC50 values tested on Beta-secretase 1 (Homo sapiens, UniProt P56817)
# Sequence (P56817 whole entry): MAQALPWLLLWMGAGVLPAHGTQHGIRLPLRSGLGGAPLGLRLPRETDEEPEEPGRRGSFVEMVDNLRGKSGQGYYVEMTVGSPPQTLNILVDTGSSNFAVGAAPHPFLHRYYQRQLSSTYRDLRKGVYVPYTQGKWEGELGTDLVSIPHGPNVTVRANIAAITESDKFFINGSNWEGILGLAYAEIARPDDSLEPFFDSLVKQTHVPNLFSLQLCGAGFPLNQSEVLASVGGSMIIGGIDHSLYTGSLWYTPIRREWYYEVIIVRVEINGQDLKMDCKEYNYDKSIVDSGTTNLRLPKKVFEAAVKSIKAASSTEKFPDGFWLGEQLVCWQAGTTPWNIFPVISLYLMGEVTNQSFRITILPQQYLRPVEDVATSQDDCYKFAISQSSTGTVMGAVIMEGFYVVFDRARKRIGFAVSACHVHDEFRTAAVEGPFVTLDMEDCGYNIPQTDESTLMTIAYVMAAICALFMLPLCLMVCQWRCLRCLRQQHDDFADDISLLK
# number only, unit µM dropped from output

Example compounds with recorded IC50:
Task item: Please state recorded IC50 (tested on Beta-secretase 1 (Homo sapiens, UniProt P56817)) of Oc1cc(O)c2c(c1)O[C@H](c1cc(O)c(O)c(O)c1)[C@@H](O)C2 [GALLOCATECHIN]
Reply: 2.5

Task item: Please state recorded IC50 (tested on Beta-secretase 1 (Homo sapiens, UniProt P56817)) of "Oc1cc(O)c2c(c1)O[C@@H](c1cc(O)c(O)c(O)c1)[C@@H](O)C2"
Reply: 2.4

Others:
Task item: Please state recorded IC50 (tested on Beta-secretase 1 (Homo sapiens, UniProt P56817)) of O=C(O[C@@H]1Cc2c(O)cc(O)cc2O[C@H]1c1ccc(O)c(O)c1)c1cc(O)c(O)c(O)c1 [(-)-CATECHINGALLATE]
Reply: 6
